tested.on: Cellular tumor antigen p53 (Homo sapiens) (UniProt P04637)
Sequence (P04637 whole entry, looked up): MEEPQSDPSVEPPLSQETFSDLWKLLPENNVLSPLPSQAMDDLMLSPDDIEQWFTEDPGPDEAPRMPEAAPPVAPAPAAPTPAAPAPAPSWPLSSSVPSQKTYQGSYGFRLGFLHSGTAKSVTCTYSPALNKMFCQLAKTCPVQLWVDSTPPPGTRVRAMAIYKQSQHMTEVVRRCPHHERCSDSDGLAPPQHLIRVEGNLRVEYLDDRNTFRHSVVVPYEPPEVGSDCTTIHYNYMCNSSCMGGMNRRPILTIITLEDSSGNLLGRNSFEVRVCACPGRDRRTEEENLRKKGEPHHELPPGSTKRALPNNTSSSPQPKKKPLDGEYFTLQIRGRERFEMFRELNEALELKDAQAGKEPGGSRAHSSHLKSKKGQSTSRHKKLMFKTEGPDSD
assay.notes: Primary qHTS for small molecule compounds that upregulate eGFP-tagged delta133p53alpha (in N-terminal) cells. (AID 2060322);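 also: cells pre-induced with doxycycline then dosed without doxycycline; 0% = DMSO vehicle and 100% = reference activator; nearly all actives have a fitted effect of over 75% in size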
details: NCI-H358 eGFP-delta133p53alpha fluorescence, 24 h; active compounds read high
Records with an inconclusive call do not appear. Peptide text beside a SMILES is read from it. * marks the point of attachment. Hexanoyl = CCCCCC(=O)*
Please respond with reported activation for every item in the list.
Give the value in % but do not write % after it.

Value lookup for activation; key = COc1ccc(-c2nc(-c3cc(C(F)(F)F)cc(C(F)(F)F)c3)n(Cc3ccc(C(N)=O)cc3)c2-c2ccc(OC)cc2)cc1
-11

Value lookup for activation; key = CCCCCC(=O)N1CCC[C@H]1C(=O)N[C@@H](Cc1ccc(O)cc1)C(=O)OC (Hexanoyl-Pro-Tyr-OMe)
-3.57

Value lookup for activation; key = CON=C(C(=O)N[C@@H]1C(=O)N2C(C(=O)O)=C(Cn3ccc(=N)n3CCO)CS[C@H]12)c1csc(N)n1
23.9

Value lookup for activation; key = CC1C=CC2CCCCC2C1CCC1CC(O)CC(=O)O1 (stereo not given)
-0.893

Value lookup for activation; key = CC(C)c1onc(-c2c(Cl)cccc2Cl)c1COc1ccc(C=Cc2cccc(C(=O)O)c2)c(Cl)c1
-0.915

----------
assay.notes: BET inhibitor-based combinations targeting novel dependencies in MECOM-rearranged (r) AML: MV-4-11 cell line (AID 2202233); also: nearly all actives have a fitted effect of over 45% in size
details: MV-4-11 AML viability, CellTiter-Glo luminescence, 48 h; series mostly up to 46 µM
Results filed as inconclusive are left out. The source made the active and inactive calls. The call rests on the fitted dose curve; in most records, active means well fitted inhibition curve with a large enough effect; inconclusive means small, poorly fitted or top-dose-only effect; inactive means no such curve, though single readings can be large or run the other way.
Can you answer with just one of these options? active, inactive

Just curious, what result did CCc1cccc(CC)c1NC(=O)N1Cc2[nH]nc(NC(=O)c3ccc(N4CCN(C)CC4)cc3)c2C1 get here?
active

Just curious, what result did CCOC(=O)[C@@H](N)CCC(=O)N[C@@H](CSCc1ccccc1)C(=O)N[C@@H](C(=O)OCC)c1ccccc1 get here?
active

Just curious, what result did O=C(CCCCCCC(=O)Nc1cccnc1)NO get here?
active

Just curious, what result did C[N+](C)([O-])CCNc1ccc(NCC[N+](C)(C)[O-])c2c1C(=O)c1c(O)ccc(O)c1C2=O get here?
active

Just curious, what result did CS(=O)(=O)c1cccc(CNc2nc(Nc3ccc4c(c3)CCC(=O)N4)ncc2C(F)(F)F)c1 get here?
active

Just curious, what result did CO[C@@H](C(=O)N1Cc2[nH]nc(NC(=O)c3ccc(N4CCN(C)CC4)cc3)c2C1)c1ccccc1 get here?
active

Just curious, what result did Cn1cnc(-c2cc3nccc(Oc4ccc(NC(=S)NC(=O)Cc5ccccc5)cc4F)c3s2)c1 get here?
active

Just curious, what result did CN1C2CCC1CC(OC(=O)C(CO)c1ccccc1)C2 (centres undefined) get here?
inactive

Just curious, what result did CC(C)C[C@@H](N)[C@H](O)C(=O)N[C@H](C(=O)N[C@H](C(=O)N[C@@H](CC(=O)O)C(=O)O)C(C)C)C(C)C get here?
inactive

----------
Please respond with reported activation for every item in the list.
tested.on: Cellular tumor antigen p53 (Homo sapiens)
assay.notes: Primary qHTS for small molecule compounds that upregulate eGFP-tagged delta133p53alpha (in N-terminal) cells. (AID 2060322);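 also: cells pre-induced with doxycycline then dosed without doxycycline; 0% = DMSO vehicle and 100% = reference activator; nearly all actives have a fitted effect of over 75% in size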
details: NCI-H358 eGFP-delta133p53alpha fluorescence, 24 h; active compounds read high
Text: Assay Development and Screening Technology National Center for Advancing Translational Sciences (NCATS), National Institute of Health (NIH), Rockville, Maryland Cellular senescence (CS) is one of the hallmarks of aging and age-related diseases. […] Here we report the development and validation of a cell-based quantitative high throughput screening (qHTS) assay in 1,536-well format. […]
Records with an inconclusive call do not appear.
Give the value in % but do not write % after it.

// map C/C=C(\C)C1C(C)=CC2CCC(OS(=O)(=O)O)C(C)C2C1/C=C/C=C/C(=O)O (stereo not drawn) to recorded activation (system: Cellular tumor antigen p53 (Homo sapiens))
0.893

// map COc1cc(C(C)=O)c(OC)c2c1OC(C)(C)C=C2 to recorded activation (system: Cellular tumor antigen p53 (Homo sapiens))
6.25

// map CCCCC(CC)CNC(=O)CC(C)OC(=O)CCC(=O)O (stereo not drawn) to recorded activation (system: Cellular tumor antigen p53 (Homo sapiens))
11.7

// map COc1cc(O)cc(O[C@@H]2O[C@H](CO)[C@@H](O[C@@H]3OC[C@](O)(CO)[C@H]3O)[C@H](O)[C@H]2O)c1OC to recorded activation (system: Cellular tumor antigen p53 (Homo sapiens))
-14.5

// map CC(C(=O)O)c1ccc(/C=C2\CCCCC2=O)cc1 (stereo not drawn) to recorded activation (system: Cellular tumor antigen p53 (Homo sapiens))
-13.4

// map COC1CC(OC2CCC3(C)C(=CCC4C3CCC3(C)C(C(C)O)CCC43O)C2)OC(C)C1OC1OC(C)C(OC2OC(COC3OC(COC4OC(CO)C(O)C(O)C4O)C(O)C(O)C3O)C(O)C(O)C2O)C(OC)C1O (stereo not drawn) to recorded activation (system: Cellular tumor antigen p53 (Homo sapiens))
-23.7

// map C[C@@H](NCc1cc2ccccc2[nH]1)c1cccc2ccccc12 to recorded activation (system: Cellular tumor antigen p53 (Homo sapiens))
-11

// map COC(=O)C(Cc1ccc(OCCn2c(=O)sc3cc(C(=O)c4ccccc4)ccc32)cc1)C(=O)OC to recorded activation (system: Cellular tumor antigen p53 (Homo sapiens))
-10.5

// map O=C(OC(C(F)(F)F)C(F)(F)F)N1CCN(Cc2cccc(Oc3ccccc3)c2)CC1 to recorded activation (system: Cellular tumor antigen p53 (Homo sapiens))
1.43

// map O=c1ccn([C@@H]2O[C@H](CO)[C@H](O)[C@H]2O)c(=O)[nH]1 to recorded activation (system: Cellular tumor antigen p53 (Homo sapiens))
8.95

// map C[C@H]1C[C@@H]2[C@@H]([C@@H](O)C[C@@]3(C)[C@H]2CC[C@]3(O)C(=O)CO)[C@@]2(C)C=CC(=O)C=C12 to recorded activation (system: Cellular tumor antigen p53 (Homo sapiens))
-16.2

// map CCc1cnc(N2CCC(c3nc(COc4ccc(-n5cnnn5)cc4)cs3)CC2)nc1 to recorded activation (system: Cellular tumor antigen p53 (Homo sapiens))
2.86

// map CC(=O)OC1C(C)C2C(OC3OC(CO)C(O)C(O)C3O)OC=C(C(=O)O)C2C1OC(=O)c1ccccc1 (stereo not drawn) to recorded activation (system: Cellular tumor antigen p53 (Homo sapiens))
5.34

// map COC(=O)C12C(=O)C(C)=C(O)C1(C)C(C)=CC1C34CCC(OC3=O)C(C)(C)C4CCC12C (stereo not drawn) to recorded activation (system: Cellular tumor antigen p53 (Homo sapiens))
-16

// map CCC(C)C(=O)OC1CC(C)C=C2C=CC(C)C(CCC(O)CC(O)CC(=O)O)C21 (stereo not drawn) to recorded activation (system: Cellular tumor antigen p53 (Homo sapiens))
-1.53

// map CS(=O)(=O)N1CCN(Cc2cc3nc(-c4cccc5[nH]ncc45)nc(N4CCOCC4)c3s2)CC1 to recorded activation (system: Cellular tumor antigen p53 (Homo sapiens))
-25.9

// map CC1(C)CCC2=C(O1)c1ccccc1C(=O)C2=O to recorded activation (system: Cellular tumor antigen p53 (Homo sapiens))
-0.948

// map C/C1=C\C[C@H](O[C@@H]2O[C@H](CO)[C@@H](O)[C@H](O)[C@H]2O)/C(C)=C/[C@H]2OC(=O)[C@H](C)[C@@H]2CC1 to recorded activation (system: Cellular tumor antigen p53 (Homo sapiens))
-8.04
